Test system: NCI-H23
experiment.summary: NCI tumour cell line growth inhibition, 48 h
Active and inactive are the calls of the source. No stated cut-off is given here; in the data, active = GI50 up to about 1.1 µM and inactive = higher.
In this section, each of the compounds is paired with its reported GI50.

compound	GI50
OCC1CCCCN1Cc1nc2cc(Cl)ccc2[nH]1 (stereo unspecified)	> 100 µM (inactive)
Cc1cc(-c2nc3cc(F)ccc3s2)ccc1N	2.79 µM (inactive)
Cc1cn(C2CC(N=[N+]=[N-])C(CO)O2)c(=O)n(CCCCBr)c1=O (stereo unspecified)	96.8 µM (inactive)
COc1ccc(C(=C(I)c2ccccc2)c2ccc(OC)cc2)cc1	> 100 µM (inactive)
CCCCCCCCCCCCCCCC(=O)OCC1OC(n2ccc(N)nc2=O)C(O)C1O (stereo unspecified)	1.25 µM (inactive)
COc1c2ccoc2c(S(=O)(=O)Nc2ccc(Cl)cc2)c2oc(C)cc(=O)c12	> 100 µM (inactive)
Cn1c(N)c(-c2c3ccccc3nc3ccccc23)c(=O)n(C)c1=O	> 100 µM (inactive)
CC(=O)NC1C(O)C(O)C(CO)OC1n1ncc(=O)[nH]c1=O (stereo unspecified)	> 100 µM (inactive)
O=C(CCc1ccccc1)ON1C(=S)C(c2ccccc2)(c2ccccc2)N=C1Sc1ccccc1	34.4 µM (inactive)
c1ccc(C2=NCCN2)c(C2=NCCN2)c1	> 100 µM (inactive)
NNC(=O)c1nn[nH]c1C(=O)NN	> 100 µM (inactive)

* * *

In this section, each of the molecules is paired with its reported GI50.
Tested on: OVCAR-3
experiment.summary: NCI tumour cell line growth inhibition, 48 h
Calls of active or inactive are those of the source. Cut-off read from the data, not from the text of the source: active = GI50 up to about 1.1 µM and inactive = higher.
measured.endpoint: GI50

molecule	measured.endpoint	endpoint.value
Cc1ccc(NC(=O)CC(=O)n2nc(-c3ccccc3)c(/N=N/c3ccccc3C(=O)O)c2-c2ccccc2)cc1	GI50	> 100 µM (inactive)
O=C1NC(O)c2cc3ccccc3cc2O1 (stereo not given)	GI50	26.4 µM (inactive)
COc1ccc(-n2c(N)c(C#N)c(C#N)c2-c2cccc([N+](=O)[O-])c2)cc1	GI50	> 100 µM (inactive)
COc1cc(/C=C/C(=O)CC(=O)/C=C/c2ccc(OC(=O)CCCCC3CCSS3)c(OC)c2)ccc1OC(=O)CCCCC1CCSS1 (stereo not given)	GI50	> 100 µM (inactive)
Cc1ccc(/N=N/c2c(O)ccc3cc(S(=O)(=O)O)ccc23)c(C)c1	GI50	> 100 µM (inactive)
COC(=O)C1SC(N(C)c2ccccc2)=NC12c1ccccc1Nc1ccccc12 (stereo not given)	GI50	11 µM (inactive)
CC(=O)N(C)OC(=O)CC(=O)c1ccccc1	GI50	> 100 µM (inactive)
COC(=O)c1ccc2[nH]c3c(c2c1)CC(=O)Nc1ccccc1-3	GI50	> 100 µM (inactive)
Clc1ccc(COC(Cn2ccnc2)c2ccc(Cl)cc2Cl)cc1 (stereo not given) [ECONAZOLE NITRATE]	GI50	11.5 µM (inactive)
COC(=O)c1ccc2cc(O)ccc2c1	GI50	> 100 µM (inactive)

* * *

Test system: KM-20L2
experiment.summary: NCI tumour cell line growth inhibition, 48 h
The source made the active and inactive calls. No stated cut-off is given here; in the data, active = GI50 up to about 1.1 µM and inactive = higher.

compound	measured.on	GI50
Cn1c(=O)nc2n(-c3ccc(O)cc3)c3ccccc3nc-2c1=O	KM-20L2	64.3 µM (inactive)
N#CC1(Cc2ccccc2Cl)c2ccccc2C=CN1C(=O)c1ccccc1 (centres undefined)	KM-20L2	> 100 µM (inactive)
Sc1nnc(COc2ccc(Cl)cc2)o1	KM-20L2	> 100 µM (inactive)
Cc1c2ccncc2c(C)c2c1[nH]c1ccc(O)c(OCC(F)(F)F)c12	KM-20L2	12.2 µM (inactive)
Cc1ccc(S(=O)(=O)n2cc(/C=C/C#N)c(/C=C/C#N)c2)cc1	KM-20L2	93.3 µM (inactive)
COc1ccccc1NC(=O)C1=C(C)NC(C)=C(C(=O)Nc2ccccc2OC)C1c1ccc(C2C(C(=O)Nc3ccccc3OC)=C(C)NC(C)=C2C(=O)Nc2ccccc2OC)cc1	KM-20L2	1.71 µM (inactive)
Cc1ccc(C(=O)NC(C)C)cc1/N=N/N(C)C	KM-20L2	> 100 µM (inactive)
CC1=C2CCCC2=C/C(=N/Nc2ccc([N+](=O)[O-])cc2[N+](=O)[O-])CC1	KM-20L2	> 100 µM (inactive)
CCOC(=O)C(C)OC(=O)c1ccc(C)cc1 (centres undefined)	KM-20L2	> 100 µM (inactive)
O=C(O)CCCCCCC[C@@H]1S[C@H]1CCCCCCO	KM-20L2	> 100 µM (inactive)
CS(=O)(=O)CSCSSCS(C)(=O)=O	KM-20L2	55.8 µM (inactive)
c1ccc2c(c1)cc(C1NCCc3nc[nH]c31)c1ccccc12 (centres undefined)	KM-20L2	56.5 µM (inactive)
Cc1ccc(NC(=O)CC(=O)n2nc(-c3ccccc3)c(/N=N/c3ccccc3C(=O)O)c2-c2ccccc2)cc1	KM-20L2	84.7 µM (inactive)
O=C(c1ccc2c3c(ccc(C(=O)C(F)(F)F)c13)CC2)C(F)(F)F	KM-20L2	35.2 µM (inactive)
O=c1c2ccccc2n2nnc3ccc(NCCNCCO)c1c32	KM-20L2	1.29 µM (inactive)
O=C(c1ccccc1)C(c1ccccc1)C1(O)C(=O)Nc2ccccc21 (centres undefined)	KM-20L2	> 100 µM (inactive)
CCCCCCCCCCCCCCCC(=O)OCC1OC(n2ccc(N)nc2=O)C(O)C1O (centres undefined)	KM-20L2	> 24.8 µM (inactive)
CC1CCC(C(C)C)C(O[C@@H]2OC(=O)C[C@@H]2Sc2ccccc2)C1 (some centres undefined)	KM-20L2	> 10 µM (inactive)
CC1(C)C2C=CC1C(=O)CC2 (centres undefined)	KM-20L2	> 100 µM (inactive)
CC(C)CC/N=c1/cc2n(-c3ccc(Cl)cc3)c3ccccc3nc-2cc1Nc1ccc(Cl)cc1	KM-20L2	1.34 µM (inactive)
CC(C)(C)c1cc(C=C(C#N)C#N)cc(C(C)(C)C)c1O	KM-20L2	4.61 µM (inactive)
CCN(CC)CCCNC(=O)c1ccccc1Nc1c(Cl)cccc1Cl	KM-20L2	2.56 µM (inactive)
COc1cccc(NC(=O)C(=O)C(C(=O)c2ccccc2F)C2OC(=O)c3ccccc32)c1 (centres undefined)	KM-20L2	33.3 µM (inactive)
O=C1C=CC(=O)c2c1ccc1c3ccccc3n(-c3ccccc3)c21	KM-20L2	17 µM (inactive)

* * *

Test system: PC-3
experiment.summary: NCI tumour cell line growth inhibition, 48 h
Activity calls are given as the source filed them. No stated cut-off is given here; in the data, active = GI50 up to about 1.1 µM and inactive = higher.
Outcomes: 1 = active, -1 = inactive

compound	measured.on	label.value
CC(=O)Oc1c(OC(C)C)c(C)c(O[Si](C(C)C)(C(C)C)C(C)C)c2[nH]c3ccccc3c12	PC-3	-1
O=C(NCCCN1CCN(CCCNC(=O)Nc2cccc3ccccc23)CC1)Nc1cccc2ccccc12	PC-3	-1
O=c1c2ccccc2n2nnc3ccc(NCCNCCO)c1c32	PC-3	-1
COCCN(CCNC(=O)c1cccc2c(N)c3cccc(C)c3nc12)CCOC	PC-3	1
CCOC(=O)CC1C(C(=O)OCC)=Cn2c([nH]c3cccc4cccc2c43)=C1C(=O)OCC (stereo unspecified)	PC-3	-1
COc1ccc(C2(CC(C)C)CCN(S(=O)(=O)c3ccc(C)cc3)C2)cc1OC (stereo unspecified)	PC-3	-1
CCC#CCCCCCCCCC(F)C(=O)O (stereo unspecified)	PC-3	-1
COc1nc(Cl)nc(N[C@H](C)c2c3ccccc3cc3ccccc23)n1	PC-3	-1
CC(C)=CCC/C(C)=C/CC/C(C)=C/CCN(C)CCO	PC-3	-1
CC(=O)NC1C(O)C(O)C(CO)OC1n1ncc(=O)[nH]c1=O (stereo unspecified)	PC-3	-1
COc1cccc2c3ccccc3c3nc[nH]c3c12	PC-3	-1
COC(=O)CSSCc1ccc([N+](=O)[O-])cc1	PC-3	-1
CS(=O)(=O)c1ccc2nc(-c3ccc(O)cc3)sc2c1	PC-3	-1
N#Cc1nc(C2CC2)oc1N	PC-3	-1
O=S(=O)(O)c1cccc2ccc(O)c(/N=N\c3ccc(S(=O)(=O)c4ccc(/N=N/c5c(O)ccc6cccc(S(=O)(=O)O)c56)cc4)cc3)c12	PC-3	-1
O=S1(=O)c2ccccc2C(=NO)c2ccccc21	PC-3	-1
O=c1oc2cc(/N=C/c3ccccc3Cl)ccc2c2ccccc12	PC-3	-1
Cc1nc2c(sc(=S)n2-c2ccccc2)c2nc3ncccc3n12	PC-3	-1
CC(C)(C)c1cc(C=C(C#N)C#N)cc(C(C)(C)C)c1O [TYRPHOSTIN A9]	PC-3	1
C[C@]12CC[C@H](O)CC1=CC[C@@H]1[C@@H]2CC[C@]2(C)C(=N/N)/C(=N\O)C[C@@H]12	PC-3	-1
O=S(=O)(c1ccc2ccccc2c1)N1CCN(S(=O)(=O)c2ccc3ccccc3c2)CC1	PC-3	-1

* * *

Tested on: SN12C
experiment.summary: NCI tumour cell line growth inhibition, 48 h
The source made the active and inactive calls. No stated cut-off is given here; in the data, active = GI50 up to about 1.1 µM and inactive = higher. Where a SMILES comes first, the peptide text is derived from it. [ ]: non-standard residue; d: D form. The star is where a group is joined. ξ: configuration not given here. ξF = NC(Cc1ccccc1)C(=O)O; Cbz = O=C(OCc1ccccc1)*; Aib = CC(C)(N)C(=O)O; NHNH2 = NN*
measured.endpoint: GI50

compound	measured.on	endpoint.value
O=C(/C=C/c1ccc(-c2ccccc2)cc1)NCc1ccc(C(=O)NCc2ccccc2)cc1	SN12C	> 100 µM (inactive)
CC(C)(NC(=O)OCc1ccccc1)C(=O)NC(Cc1ccccc1)C(=O)NN (configuration not stated) (Cbz-[Aib]-[ξF]-NHNH2)	SN12C	> 100 µM (inactive)
CCCCCCCCCCNC1CC(OC2CC(O)(C(O)CO)Cc3c(O)c4c(c(O)c32)C(=O)c2c(OC)cccc2C4=O)OC(C)C1O (configuration not stated)	SN12C	1.65 µM (inactive)
Cn1c(=O)c2c(nc(N)n2C2OC(CO)C(O)C2O)n(C)c1=O (configuration not stated)	SN12C	> 100 µM (inactive)
Nc1ccc(-c2nc3ccc(F)cc3s2)cc1	SN12C	33 µM (inactive)
COc1cccc(C2c3cc4c(cc3OC(C)(N3CCCC3)C2C)OCO4)c1 (configuration not stated)	SN12C	17.2 µM (inactive)
COc1ccc(C2(CC(C)C)CCN(S(=O)(=O)c3ccc(C)cc3)C2)cc1OC (configuration not stated)	SN12C	> 100 µM (inactive)
O=C(C#Cc1cnc(O)nc1O)c1ccccc1Cl	SN12C	14.1 µM (inactive)
CCCCCCCCCCc1c2nc(c(CCCCCCCCCC)c3ccc([nH]3)c(CCCCCCCCCC)c3nc(c(CCCCCCCCCC)c4ccc1[nH]4)C=C3)C=C2	SN12C	> 100 µM (inactive)
COc1ccc2oc3c(ccc[n+]3C)c(=O)c2c1	SN12C	> 100 µM (inactive)
Cc1sc2nc3n(c(=O)c2c1C)N=C(c1ccccc1)CS3	SN12C	> 100 µM (inactive)
COc1ccccc1NC(=O)C1=C(C)NC(C)=C(C(=O)Nc2ccccc2OC)C1c1ccc(C2C(C(=O)Nc3ccccc3OC)=C(C)NC(C)=C2C(=O)Nc2ccccc2OC)cc1	SN12C	1.79 µM (inactive)
O=C(CCc1nnc2s/c(=C\c3ccc([N+](=O)[O-])cc3)c(=O)n12)Nc1ccc(Cl)c(Cl)c1	SN12C	25.2 µM (inactive)
C[C@]12CC[C@H](O)CC1=CC[C@@H]1[C@@H]2CC[C@]2(C)C(=N/N)/C(=N\O)C[C@@H]12	SN12C	> 100 µM (inactive)
O=C1C=CC(=O)c2c1ccc1c3ccccc3n(-c3ccccc3)c21	SN12C	11.5 µM (inactive)
CCC#CCCCCCCCCC(F)C(=O)O (configuration not stated)	SN12C	> 100 µM (inactive)
CC(C)=CCC[C@](C)(O)[C@H]1CC[C@]2(C)[C@@H]1[C@H](O)C[C@@H]1[C@@]3(C)CC[C@H](O[C@@H]4O[C@H](CO)[C@@H](O)[C@H](O)[C@H]4O)C(C)(C)[C@@H]3CC[C@]12C [GINSENOSIDE RH2]	SN12C	16.7 µM (inactive)
